The measured values listed here are drawn from patent US9738656B2.

system: male ddY mice; experiment: Rotarod performance test-2; type: in vivo; settings: Table 4; mice, oral at the ED50 dose of the 6 Hz model, 25 minutes after administration

{"compound": "N#Cc1ccccc1-n1nc2c(c(-c3cccnc3)c1=O)COc1ccccc1-2 [Control Compound, reference compound]", "target.system": "male ddY mice", "Time of Fall (s)": 14.3}
{"compound": "N#Cc1c(F)cccc1-c1cc2c(n(-c3cncc(Cl)c3)c1=O)COc1cccnc1-2", "target.system": "male ddY mice", "Time of Fall (s)": 71.3}
{"compound": "O=c1c(-c2cccc(F)c2Cl)cc2c(n1-c1cncc(F)c1)COc1cccnc1-2", "target.system": "male ddY mice", "Time of Fall (s)": 147.0}
{"compound": "N#Cc1c(F)cccc1-c1cc2c(n(-c3cccnc3)c1=O)COc1cccc(F)c1-2", "target.system": "male ddY mice", "Time of Fall (s)": 92.8}
{"compound": "N#Cc1c(F)cccc1-c1cc2c(n(-c3cncnc3)c1=O)COc1cccnc1-2", "target.system": "male ddY mice", "Time of Fall (s)": 102.2}
{"compound": "N#Cc1c(F)cccc1-c1cc2c(n(-c3cncc(F)c3)c1=O)COc1cccnc1-2", "target.system": "male ddY mice", "Time of Fall (s)": 100.0}
{"compound": "Cc1c(F)cccc1-c1cc2c(n(-c3cccnc3)c1=O)COc1cccnc1-2", "target.system": "male ddY mice", "Time of Fall (s)": 102.8}
